system: SARS-CoV-2 (BetaCov/Belgium/GHB-03021/2020); experiment: in vitro; settings: African green monkey
measurement name: selectivity ratio

CC(=O)O[C@@H]1CC[C@@]2(C)[C@@H](CC[C@]3(C)[C@@H]2C(=O)C=C2[C@@H]4[C@@H](C)[C@H](C)CC[C@]4(C)CC[C@]23C)[C@@]1(C)C(=O)O ... > 20.8

Reported selectivity ratio for "CC1(C)CCC(CN2CCN(c3ccc(C(=O)NS(=O)(=O)c4ccc(NCC5CCOCC5)c([N+](=O)[O-])c4)c(Oc4cnc5[nH]ccc5c4)c3)CC2)=C(c2ccc(Cl)cc2)C1" : what is it? > 118

Item under review: "Cc1oc2c(C)c3oc(=O)c(CCC(=O)N4CCC(C(=O)O)(c5ccccc5)CC4)c(C)c3cc2c1-c1ccccc1" . Reported selectivity ratio? > 38.4

// returns reported selectivity ratio for input "O=C(O)c1c(Cl)c(Cl)c(Cl)c(Cl)c1-c1c2cc(I)c(=O)c(I)c-2oc2c(I)c(O)c(I)cc12" > 546

* * *

experiment: Compounds cytotoxicity in the Vero E6 cell line; details: African green monkey, Vero E6 cells stably expressing GFP, with CP-100356 (P-gp inhibitor), 2 μM
measurement name: CC50 at 24 h

For the compound shown here, "CC(=O)O[C@@H]1CC[C@@]2(C)[C@@H](CC[C@]3(C)[C@@H]2C(=O)C=C2[C@@H]4[C@@H](C)[C@H](C)CC[C@]4(C)CC[C@]23C)[C@@]1(C)C(=O)O" , give the reported CC50 at 24 h. > 100 µM

* * *

biological target: SARS-CoV-2 nsp12/7/8 (RTC) complex (Severe acute respiratory syndrome coronavirus 2, UniProt P0DTD1); experiment: biochemical; format: biochemical; conditions: read-out: IC50: compound concentration required to inhibit by 50% the SARS-CoV-2 RTC enzymatic activity
Listing of entries alongside the reported IC50.

C[C@@H]1CC[C@@]2(OC1)O[C@H]1C[C@H]3[C@@H]4CC=C5C[C@@H](O[C@@H]6O[C@H](CO)[C@@H](O)[C@H](O)[C@H]6O[C@@H]6O[C@@H](C)[C@H](O)[C@@H](O)[C@H]6O)CC[C@]5(C)[C@H]4CC[C@]3(C)[C@H]1[C@@H]2C ... > 100 µM
CC(C)=CCCC(C(=O)O)C1CCC2(C)C3=C(CCC12C)C1(C)CCC(=O)C(C)(C)C1CC3 (stereo not drawn) [3-Dehydrotrametenolic acid] ... > 100 µM
O=C(Nc1cccc(C(=O)O)c1)/C(=C\c1ccccc1)NC(=O)c1ccc(NC(=O)c2ccccc2)cc1 ... 85.7 µM
CC#C/C(=N/OC[C@H]1COCCN1)c1ccc2ncnc(Nc3ccc(OCc4cccc(F)c4)c(Cl)c3)c2c1 [reference compound] ... > 100 µM
O=C(CCn1c2c(c3ccccc31)CCn1c-2nc2ccccc2c1=O)N1CCN(C2=Nc3ccccc3Oc3ccccc32)CC1 ... > 100 µM

So what's the measured IC50 for this one? Cc1ccc(NC(=O)[C@H]2CCCN(C(=O)c3c(C)cccc3F)[C@H]2c2ccc(NC3CCCC3)cc2)cc1C(F)(F)F [Avacopan, reference compound] > 100 µM

Reported IC50 for CC(C)(O)CC[C@H]1OC(C)(C)O[C@]1(C)[C@H]1CC[C@@]2(O)C3=CC(=O)[C@@H]4C[C@H]5OC(C)(C)O[C@H]5C[C@]4(C)[C@H]3CC[C@]12C [Ecdysterone 2,3:20,22-diacetonide] : what is it? > 100 µM

GET /values?readout=IC50&item= C[C@H](CC[C@@H](O[C@@H]1O[C@H](CO)[C@@H](O)[C@H](O)[C@H]1O)C(C)(C)O)[C@H]1CC[C@@]2(C)[C@@H]3CC=C4[C@@H](CC[C@H](O[C@@H]5O[C@H](CO)[C@@H](O)[C@H](O)[C@H]5O)C4(C)C)[C@]3(C)[C@H](O)C[C@]12C [Mogroside IIe] > 100 µM

What value of IC50 has been recorded for this entry: C=C(C)[C@@H]1CC[C@]2(C(=O)O)CC[C@]3(C)[C@H](CC[C@@H]4[C@@]5(C)CC[C@H](O[C@@H]6OC[C@H](O)[C@H](O)[C@H]6O[C@@H]6O[C@@H](C)[C@H](O)[C@@H](O)[C@H]6O)[C@@](C)(CO)[C@@H]5CC[C@]43C)[C@@H]12 [Pulchinenoside A] 24.7 µM

* * *

biological target: SARS-CoV-2 nsp12/7/8 (RTC) complex (Severe acute respiratory syndrome coronavirus 2); experiment: biochemical; format: biochemical; conditions: read-out: IC50: compound concentration required to inhibit by 50% the SARS-CoV-2 RTC enzymatic activity
pIC50: −log10 of the molar value.
The compounds listed here are annotated with their pIC50.

C[C@@H]1CC[C@]2(C(=O)O)CC[C@]3(C)C(=CC[C@@H]4[C@@]5(C)C[C@@H](O)[C@H](O)C(C)(C)[C@@H]5CC[C@]43C)[C@@H]2[C@]1(C)O [Tormentic acid] ... < 4.00
CC(C)(O)[C@@H]1CC[C@](C)([C@H]2[C@@H](O)C[C@@]3(C)[C@@H]4C[C@H](O)[C@H]5C(C)(C)[C@@H](O)CC[C@@]56C[C@@]46CC[C@]23C)O1 [Cycloastragenol] ... < 4.00
CC1(C)[C@H](OC(=O)c2ccccc2)CC[C@]2(C)C3=C([C@@H](O)C[C@@H]12)[C@@]1(C)CC[C@@]2(C)CC[C@@](C)(COC(=O)c4ccccc4)C[C@H]2[C@]1(C)CC3 [3,29-Dibenzoyl Rarounitriol] ... < 4.00

For the next question, use this compound.
# input compound: CC(C)(O)[C@H]1CC[C@@](C)([C@H]2CC[C@]3(C)[C@@H]2[C@H](O)C[C@@H]2[C@@]4(C)CC[C@H](O)C(C)(C)[C@@H]4[C@@H](O[C@@H]4O[C@H](CO)[C@@H](O)[C@H](O)[C@H]4O)C[C@]23C)O1 [Pseudoginsenoside Rt5] ; wanted: its pIC50 < 4.00

* * *

target: SARS-CoV-2 nsp12/7/8 (RTC) complex (Severe acute respiratory syndrome coronavirus 2, UniProt P0DTD1); assay: biochemical; assay type: biochemical
Reported IC50 values follow for various compounds

O=C(c1cccc(-c2nc3ccccc3[nH]2)n1)N1CCN(C(=O)c2cccc(-c3nc4ccccc4[nH]3)n2)CC1 [Omilancor, reference compound] ... > 100 µM
CC1(C)CC[C@]2(C(=O)O)CC[C@]3(C)C(=CC[C@@H]4[C@@]5(C)C[C@@H](O)[C@H](O)C(C)(C)[C@@H]5CC[C@]43C)[C@@H]2C1 ... > 100 µM
CC1(C)CC[C@]2(C(=O)O)[C@H](O)C[C@]3(C)C(=CC[C@@H]4[C@@]5(C)CC[C@H](O)[C@@](C)(C=O)[C@@H]5CC[C@]43C)[C@@H]2C1 ... 83.9 µM

What measured IC50 goes with CC(C)Oc1ccc(-c2nn([C@@H](C)c3oc4ccc(F)cc4c(=O)c3-c3cccc(F)c3)c3ncnc(N)c23)cc1F [Umbralisib, reference compound] ? > 100 µM

What value of IC50 has been recorded for this entry: CCOC(=O)N[C@@H]1CC[C@@H]2[C@@H](C1)C[C@H]1C(=O)O[C@H](C)[C@H]1[C@H]2/C=C/c1ccc(-c2cccc(F)c2)cn1 [Vorapaxar, reference compound] > 100 µM

* * *

Documented pIC50 across a set of molecules
target: SARS-CoV-2 nsp12/7/8 (RTC) complex (Severe acute respiratory syndrome coronavirus 2); assay: biochemical; format: biochemical
pIC50: −log10 of the molar value.

Worked cases, answers included:
CC1(C)CC[C@]2(C(=O)O[C@@H]3O[C@H](CO)[C@@H](O)[C@H](O)[C@H]3O)CC[C@]3(C)C(=CC[C@@H]4[C@@]5(C)CC[C@H](O[C@@H]6O[C@H](C(=O)O)[C@@H](O)[C@H](O)[C@H]6O[C@@H]6OC[C@@H](O)[C@H](O)[C@H]6O)C(C)(C)[C@@H]5CC[C@]43C)[C@@H]2C1 [Pseudoginsenoside Rt1] ... 4.31
Oc1cccc(-c2c3nc(c(-c4cccc(O)c4)c4ccc([nH]4)c(-c4cccc(O)c4)c4nc(c(-c5cccc(O)c5)c5ccc2[nH]5)CC4)C=C3)c1 [Temoporfin, reference compound] ... < 4.00
C[C@H]1[C@H](C)CC[C@]2(C(=O)O)CC[C@]3(C)C(=CC[C@@H]4[C@@]5(C)CC[C@H](O)C(C)(C)[C@@H]5CC[C@]43C)[C@H]12 [Ursolic acid, reference compound] ... < 4.00

Now for a further molecule.
What value of pIC50 has been reported for the following molecule? CC(C)C1=CC(=O)[C@](C)([C@H]2[C@H](O)C[C@@]3(C)[C@@H]4CC=C5[C@@H](CC[C@@H](O[C@@H]6OC[C@@H](O)[C@H](O)[C@H]6O[C@@H]6O[C@@H](C)[C@H](O)[C@@H](O)[C@H]6O)C5(C)C)[C@]4(C)C(=O)C[C@]23C)O1 (racemic) [Picfeltarracemin Ia] < 4.00
